- Tested on: Inadl_6, Q8NI35
- Sequence (Q8NI35 1058-1167): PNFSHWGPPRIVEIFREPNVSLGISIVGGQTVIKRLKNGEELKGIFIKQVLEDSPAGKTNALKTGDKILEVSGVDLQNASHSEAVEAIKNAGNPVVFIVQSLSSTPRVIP
- Assay explanation: holdup assay
- Parameters: key: below the threshold = too weak to quantify, mostly under pKd 3.1 to 4
- Particulars: plain residues with an end cap or a label only (N-terminal biotin on a linker: ttds)
Assay readout: pKd

{"Binder": "KQVVPFSSSV [GDA, Q9Y2T3]", "Value reported": "below the threshold"}
{"Binder": "FVETQHQTQV [FAT3, Q8TDW7]", "Value reported": "below the threshold"}
{"Binder": "DLDEEEDTHL [PODXL, O00592]", "Value reported": "below the threshold"}
